Experimental system: Concanavalin-A (Canavalia ensiformis)
Test protocol: ConA small-molecule binders, primary screen, artefact control for SMM control protein annotation, biochemical, small-molecule microarray, Alexa647 label, 635 nm (AID 1127);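 note: z combines 667 nm emission intensity with signal-to-noise across three replicate slides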
Stated conditions: ConA-A647 binding fluorescence, higher = more signal
Class t: composite z-score at least -0.1. Class f: composite z-score below -0.1.

Incoming: # check: composite z-score of C=CC[C@@]12N=C(c3ccc(OCCCO)cc3)O[C@@H]1c1ccccc1N(Cc1ccccc1)C2=O is greater than or equal to -0.1
Outgoing: t

Incoming: Could you tell me if the measured composite z-score of COC(=O)[C@@]1(Cc2ccccc2)[C@H]2c3cc(C(=O)N4CCCC4)n(Cc4ccc(C(F)(F)F)nc4)c3C[C@H]2CN1C(=O)c1ccccc1 reaches -0.1 or more?
Outgoing: t

Incoming: Please check the record COC(=O)[C@@]1(Cc2ccc(F)cc2)[C@H]2c3cc(C(=O)N4CCCC4)n(CCO)c3C[C@H]2CN1C(=O)c1ccccc1 and state if its composite z-score is at or above -0.1.
Outgoing: f

Incoming: State whether the measured composite z-score reaches -0.1, counting equality as reaching it, for C#CCN(C/C=C/c1ccccc1)[C@H](CO[Si](C)(C)C(C)(C)C)c1ccccc1
Outgoing: f

Incoming: API: above_or_equal(metric=composite z-score, cutoff=-0.1) for item COc1ccc([Si](C)(C)[C@H]2[C@H](CC(=O)N3Cc4ccccc4C[C@H]3CO)O[C@@]3(C(=O)N(Cc4cccc(N5C(=O)c6cccc7cccc5c67)c4)c4ccccc43)[C@@H]2C)cc1
Outgoing: t

Incoming: # bool: composite z-score of COCCCNC(=O)[C@@H]1c2ccccc2C(=O)N(Cc2cc(C(F)(F)F)cc(C(F)(F)F)c2)[C@H]1c1ccc(CO)cc1 >= -0.1
Outgoing: f

Incoming: Please check the record CC(C)C[C@H]1NC(=O)[C@H](Cc2ccccc2)NC(=O)[C@@]23C(=O)N[C@@H](Cc4ccccc4)C2[C@H](C)[C@@]2(C)O[C@H]2C3/C=C/C/C=C\CNC1=O (stereo partly drawn) and state if its composite z-score is at or above -0.1.
Outgoing: t

Incoming: hey, is composite z-score for this one >= -0.1? C=C(COC)/C(=C/C[C@@H](OC(C)=O)c1ccccc1OCCO)c1cc(C(=O)OC)ccc1OC
Outgoing: t

----------
Please respond with reported composite z-score for every item in the list.
Experimental system: Torsin-1A (Homo sapiens) (UniProt O14656)
Sequence (O14656 whole entry, looked up): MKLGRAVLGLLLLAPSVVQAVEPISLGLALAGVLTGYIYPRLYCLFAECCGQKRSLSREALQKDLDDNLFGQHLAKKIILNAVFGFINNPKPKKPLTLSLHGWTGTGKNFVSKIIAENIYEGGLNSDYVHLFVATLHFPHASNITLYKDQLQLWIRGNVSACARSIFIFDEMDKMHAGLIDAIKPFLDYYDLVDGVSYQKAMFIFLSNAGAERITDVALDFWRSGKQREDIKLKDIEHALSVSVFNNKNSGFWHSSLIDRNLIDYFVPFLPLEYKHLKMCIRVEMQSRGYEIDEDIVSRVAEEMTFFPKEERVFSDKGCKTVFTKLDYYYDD
Test protocol: torsin A binders from cell lysate, primary screen, small-molecule microarray, wild-type, 635/667 nm (AID 1149)
Stated conditions: COS7 hTOR1A-WT lysate, 635 nm fluorescence, higher = more signal
Form: value (number only, do not type unit).

Incoming: Please give measured composite z-score of the following entry: COc1ccc([Si](C)(C)[C@H]2[C@H](CCn3cc([C@H](O)c4ccccc4)nn3)O[C@@]3(C(=O)N(c4ccccc4)c4ccccc43)[C@@H]2C)cc1
Outgoing: 0.96

Incoming: Input Cc1c(-c2ccc(-c3ccc(Cl)c(Cl)c3)o2)nc(-c2ccccc2)c2c1CO[Si]2(C(C)C)C(C)C , output reported composite z-score.
Outgoing: -0.455

Incoming: Find the measured composite z-score of CC(C)(C)OC(=O)CC[C@]1(C(N)=O)N=C(c2ccc(OCCCO)cc2)O[C@H]1c1ccccc1CN=[N+]=[N-] and report it.
Outgoing: 1.57

Incoming: Supply recorded composite z-score for COc1cccc(OC)c1C(=O)O[C@H]1[C@@H]2OC(=O)[C@H](Cc3cccc(Br)c3)C/C=C/C[C@@H](Cc3cccc(Br)c3)C(=O)O[C@H]2[C@@H](OC)O[C@@H]1CO here.
Outgoing: -0.0031

Incoming: In one line, give reported composite z-score of the entry COCCOC(=O)N1C(=O)[C@@]2(c3cc(C#CC4(O)CCCCCC4)ccc31)[C@H](C(=O)NC[C@H](O)c1ccccc1)[C@H]1C(=O)O[C@H](c3ccccc3)[C@H](c3ccccc3)N1[C@@H]2c1ccc(O)cc1 .
Outgoing: 0.415

Incoming: Entry O=C1OCCC/C=C\[C@H]2OC34C=CCN(Cc5ccccc5)C(=O)[C@H]3N(CCCCCO)C(=O)[C@@H]4C12 (stereo partly drawn) needs its composite z-score filled in; supply it.
Outgoing: -0.234

Incoming: Give me measured composite z-score, please, for this compound: C=CCNC(=O)[C@H]1[C@@H]2C(=O)O[C@@H](c3ccccc3)[C@@H](c3ccccc3)N2[C@@H](c2ccccc2OCCO)[C@]12C(=O)N(C(=O)OCCOC)c1ccccc12
Outgoing: -0.025

Incoming: Return the recorded composite z-score value; entry: C/C=C/CN(C(=O)C#Cc1ccccc1)[C@H](CO[Si](C)(C)C(C)(C)C)c1ccccc1
Outgoing: -0.724

Incoming: Read the entry COc1ccc(NC(=O)O[C@H]2[C@H](OC(=O)Nc3ccc4c(c3)OCO4)[C@H](OC(=O)Nc3ccc4c(c3)OCO4)[C@@H](OC)O[C@@H]2CO)cc1 and write its reported composite z-score.
Outgoing: 0.207

Incoming: Please report the measured composite z-score for C=CCC(OC(C)=O)[C@@H]1[C@@H](N(Cc2cc3ccccc3o2)C(=O)Cc2ccc(OC)cc2)c2cc(OCCCO)ccc2N1C(=O)Cc1ccc2ccccc2c1 (stereo partly drawn)
Outgoing: -0.773

Incoming: Retrieve composite z-score measured for COC(=O)[C@@]1(Cc2ccc(F)cc2)[C@H]2c3cc(C(=O)N(C)C)n(CCN4CCOCC4)c3C[C@H]2CN1C(=O)c1ccccc1 and print it.
Outgoing: 2.73

Incoming: Look up and report measured composite z-score for this entry: CC(C)C(=C=CC[C@@H](O)c1cccc(OCCO)c1)CCO
Outgoing: 0.462

Incoming: Dear colleague, please send me the reported composite z-score for CC(C)c1ccc(NN2C(C(O)C(C)C)C=CC3C(=O)N(c4ccccc4)C(=O)C32)cc1 (stereo not drawn) when you can.
Outgoing: -0.317

Incoming: Report measured composite z-score; entry is COCCOC(=O)N1C(=O)[C@@]2(c3cc(C#CCC(C(=O)OC)C(=O)OC)ccc31)[C@H](C(N)=O)[C@H]1C(=O)O[C@H](c3ccccc3)[C@H](c3ccccc3)N1[C@@H]2c1ccc(OCCO)cc1
Outgoing: 0.704

Incoming: For the compound COc1cccc(C[C@H]2C[C@@H](CO[Si](C(C)C)(C(C)C)C(C)C)N3C(=O)[C@@]4(C(C)=O)O[C@@]23[C@@H]2C(=O)N(C)C(=O)[C@@H]24)c1 , give its measured composite z-score value.
Outgoing: 0.241

Incoming: Supply recorded composite z-score for CN1C=C(C(=O)OCCS(C)(=O)=O)C(C(=O)OCCS(C)(=O)=O)=CC(CCCO)=CC1c1ccc(CN2CCCC2)cc1 (stereo not drawn) here.
Outgoing: 0.244

Incoming: Quote composite z-score reported for O=C1O[C@H](c2ccccc2)[C@H](c2ccccc2)N2[C@H]1[C@@H](C(=O)N1CCN(c3ncccn3)CC1)[C@]1(C(=O)Nc3ccccc31)[C@H]2c1ccc(O)cc1 please.
Outgoing: 0.103

Incoming: Quick one: give measured composite z-score for O=c1cccc(-c2ccccc2C(F)(F)F)o1
Outgoing: 0.242

----------
Test protocol: small-molecule microarray binders of probe aShh, primary screen, biochemical, biotinylated probe, 635/667 nm fluorescence (AID 1114);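 note: probe is biotin-labelled aShh protein from a stem cell growth factor screen; measures binding of labelled protein to compounds printed on the slide; score merges feature fluorescence at 667 nm with signal-to-noise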
Stated conditions: higher = more signal
Endpoint name: composite z-score

Incoming: Tell me measured composite z-score for COc1ccc([Si](C)(C)[C@H]2[C@H](CCn3cc([C@H](O)c4ccccc4)nn3)O[C@@]3(C(=O)N(c4ccccc4)c4ccccc43)[C@@H]2C)cc1 please.
Outgoing: -0.2

Incoming: Check the records and state composite z-score for COCCOC(=O)N1C(=O)[C@@]2(c3ccccc31)[C@H](C(N)=O)[C@H]1C(=O)O[C@H](c3ccccc3)[C@H](c3ccccc3)N1[C@@H]2c1ccc(OCCO)cc1
Outgoing: 0.0723

Incoming: Could you please provide reported composite z-score for CCCCC(O)C1C=CC2C(=O)NC(=O)C2N1Nc1ccccn1 (stereo unspecified) ? Thanks!
Outgoing: 0.25

Incoming: Give me measured composite z-score, please, for this compound: COC(=O)[C@]1(CO)N=C(c2ccc(OCCCO)cc2)O[C@@H]1c1ccccc1CN=[N+]=[N-]
Outgoing: 0.0611

Incoming: Output measured composite z-score for this item: CC(C)c1ccc(NN2C(C(O)C(C)C)C=CC3C(=O)N(c4ccccc4)C(=O)C32)cc1 (stereo unspecified)
Outgoing: 0.998

Incoming: Annotate the compound COC(=O)[C@@]1(CCC(=O)OC(C)(C)C)N=C(c2ccc(OCCCO)cc2)O[C@H]1c1ccccc1CN=[N+]=[N-] with its measured composite z-score.
Outgoing: -0.0035

----------
Experimental system: Calmodulin-1 (Homo sapiens) (UniProt P0DP23)
Test protocol: CALM1 binders on microarrays, EGTA buffer, profiling panel, biochemical, small-molecule microarray, Cy5-labelled CALM1 (AID 1111);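 note: labelled calmodulin applied in Tris saline Tween buffer holding calcium plus EGTA and DTT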
Stated conditions: Cy5-CALM1 binding fluorescence, higher = more signal
Think of -0.5 as a floor: if composite z-score stands on it or above, it is T; beneath it, F.

Incoming: Test whether the compound CN(C)CCCC[C@@H]1NC(=O)[C@H]2C[C@@H](C(=O)NCc3ccc(F)cc3)[C@@H](c3ccc(O)cc3)N2C1=O records composite z-score of -0.5 or higher.
Outgoing: F

Incoming: API: above_or_equal(metric=composite z-score, cutoff=-0.5) for item CCCC[C@H]1OB(O)C[C@H]2C1=C(COC)C[C@H]1C(=O)C=CC(=O)[C@H]12
Outgoing: T

Incoming: composite z-score >= -0.5 for C#CCN=C(N)N ?
Outgoing: F

Incoming: Hi team, for CCC(CC)C(O)C1C=CC2C(=O)N(C)C(=O)C2N1N1CCCCC1 (configuration not stated) , is the recorded composite z-score at or above -0.5?
Outgoing: T

Incoming: Could you tell me if the measured composite z-score of COCCOC(=O)N1C(=O)[C@@]2(c3cc(C#CCCO)ccc31)[C@H](C(=O)N1CCc3cc(OC)c(OC)cc3C1)[C@H]1C(=O)O[C@H](c3ccccc3)[C@H](c3ccccc3)N1[C@@H]2c1ccccc1OCCO reaches -0.5 or more?
Outgoing: T

Incoming: For this compound, is measured composite z-score -0.5 or higher? CCCCN1CC=CC23O[C@@H]4C=CCOC(=O)[C@@H]4[C@H]2C(=O)N(CCO)[C@@H]3C1=O (some centres not stated)
Outgoing: T

Incoming: Reported composite z-score reaches at least -0.5 for Cc1ccc(S[C@]2(C(=O)NC3CC3)CC(=O)N(Cc3cc(C(F)(F)F)cc(C(F)(F)F)c3)[C@@H]2c2ccc(CO)cc2I)cc1 ?
Outgoing: T

Origin of measurements: PubChem BioAssay
